tested on: Vero cell line; assay: MTT cytotoxicity test, Vero (normal cells); assay type: cell-based, African green monkey; conditions: Chlorocebus sabaeus, 24 h treatment, triplicate, read-out: IC50 (μM) ± SD Vero
Each entry below carries its reported IC50.
MEASURED METRIC: IC50 (µM)

>>> observed("Cc1ccc(-c2c3nc(c(-c4ccc(C)cc4)c4ccc([nH]4)c(-c4ccc([N+](=O)[O-])cc4)c4nc(c(-c5ccc(C)cc5)c5ccc2[nH]5)C=C4)C=C3)cc1")
10100
>>> observed("Brc1ccc(-c2c3nc(c(-c4ccc(Br)cc4)c4ccc([nH]4)c(-c4ccc(Br)cc4)c4nc(c(-c5ccc(Br)cc5)c5ccc2[nH]5)C=C4)C=C3)cc1")
1180
>>> observed("Nc1ccc(-c2c3nc(c(-c4ccc(N)cc4)c4ccc([nH]4)c(-c4ccc(N)cc4)c4nc(c(-c5ccc(N)cc5)c5ccc2[nH]5)C=C4)C=C3)cc1")
2260
>>> observed("CCOC(=O)COc1ccc(-c2c3nc(c(-c4ccc(C)cc4)c4ccc([nH]4)c(-c4ccc(OCC(=O)OCC)c(OCC(=O)OCC)c4)c4nc(c(-c5ccc(C)cc5)c5ccc2[nH]5)C=C4)C=C3)cc1OCC(=O)OCC")
372
>>> observed("CCOC(=O)COc1ccc(-c2c3nc(c(-c4ccc(OCC(=O)OCC)c(OCC(=O)OCC)c4)c4ccc([nH]4)c(-c4cnn(C)c4)c4nc(c(-c5cnn(C)c5)c5ccc2[nH]5)C=C4)C=C3)cc1OCC(=O)OCC")
549
>>> observed("Cc1ccc(-c2c3nc(c(-c4ccc(C)cc4)c4ccc([nH]4)c(-c4ccc(N)cc4)c4nc(c(-c5ccc(C)cc5)c5ccc2[nH]5)C=C4)C=C3)cc1")
4780
>>> observed("CCOC(=O)COc1ccc(-c2c3nc(c(-c4cnn(C)c4)c4ccc([nH]4)c(-c4ccc(OCC(=O)OCC)c(OCC(=O)OCC)c4)c4nc(c(-c5cnn(C)c5)c5ccc2[nH]5)C=C4)C=C3)cc1OCC(=O)OCC")
363
>>> observed("Cc1ccc(-c2c3nc(c(-c4ccc(C)cc4)c4ccc([nH]4)c(-c4ccc(C)cc4)c4nc(c(-c5ccc(C)cc5)c5ccc2[nH]5)C=C4)C=C3)cc1")
15600
